From: patent US8008292B2

- Study Target: human VR1 (Homo sapiens)
- Sequence (Q8NER1 whole entry): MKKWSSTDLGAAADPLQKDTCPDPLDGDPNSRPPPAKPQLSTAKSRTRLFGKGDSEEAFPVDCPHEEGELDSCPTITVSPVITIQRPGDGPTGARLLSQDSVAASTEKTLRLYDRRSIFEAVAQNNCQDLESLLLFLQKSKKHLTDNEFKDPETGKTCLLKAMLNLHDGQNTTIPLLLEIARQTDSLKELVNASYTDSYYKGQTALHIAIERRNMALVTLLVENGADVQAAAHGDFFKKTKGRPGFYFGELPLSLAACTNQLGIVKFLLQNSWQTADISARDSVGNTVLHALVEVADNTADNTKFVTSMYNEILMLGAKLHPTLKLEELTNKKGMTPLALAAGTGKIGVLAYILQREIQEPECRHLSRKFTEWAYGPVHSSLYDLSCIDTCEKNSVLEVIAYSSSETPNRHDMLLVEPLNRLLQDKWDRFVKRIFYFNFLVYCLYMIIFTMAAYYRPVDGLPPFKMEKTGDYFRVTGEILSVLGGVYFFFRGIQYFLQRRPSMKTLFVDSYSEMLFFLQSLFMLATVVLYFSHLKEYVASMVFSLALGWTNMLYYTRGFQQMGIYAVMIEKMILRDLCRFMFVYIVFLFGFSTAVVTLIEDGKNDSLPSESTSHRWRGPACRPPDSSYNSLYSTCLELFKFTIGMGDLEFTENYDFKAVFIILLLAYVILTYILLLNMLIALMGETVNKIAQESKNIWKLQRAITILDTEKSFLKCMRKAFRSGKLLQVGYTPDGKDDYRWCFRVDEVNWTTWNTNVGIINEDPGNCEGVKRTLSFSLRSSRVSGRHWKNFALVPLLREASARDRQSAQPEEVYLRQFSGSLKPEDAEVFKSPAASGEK
- Protocol: Inhibition of Ca2+ entry in cells caused by proton, in rat glioma (C6BU1) cells stably expressing human VR1 (Fura 2 fluorescence)
- Applied Conditions: inhibition of proton-induced Ca2+ entry
- Description: The assay for evaluation of VR1 inhibition by the inventive compounds will be described below. The assay was intended to evaluate in vitro inhibition of Ca^2+ entry in cells caused by proton, one of the VR1 agonists. Rat glioma (C6BU1) cells stably expressing human VR1 were suspended in 20 mM MES buffer (at pH 6.8, contg. 20 mM 2-morpholinoethanesulfonate (referred to as MES hereinafter), 115 mM NaCl, 5 mM KCl, 1 mM MgCl2 and 14 mM D-glucose) to make a cell density of 1×10^6 cells/mL. […]
# reported IC50; entries follow

Look over these answered cases.
INSERT INTO results (smiles, measured_parameter, experimental_result) VALUES
  ('O=C(Nc1ccc(OCC(F)(F)F)c(Cl)c1)c1cccc2c1OCCN2c1ncc(CO)cc1Cl', 'IC50', '< 0.1 µM'),
  ('Cc1ccc(N2CCOc3c(C(=O)N[C@H]4CC[C@H](OC(C)C)CC4)cccc32)nc1', 'IC50', '0.1 to 1 µM'),
  ('CN(C)c1ccc(NC(=O)c2cccc3c2OCCN3c2ncccc2Cl)cc1C(F)(F)F', 'IC50', '< 0.1 µM'),
  ('Cc1ccc(N2CCOc3c(C(=O)N[C@H]4CC[C@H](COC(C)(C)C)CC4)cccc32)nc1', 'IC50', '< 0.1 µM'),
  ('O=C(Nc1cc(C(F)(F)F)cc(C(F)(F)F)c1)c1cccc2c1OCCN2c1ncc(CO)cc1Cl', 'IC50', '< 0.1 µM');

Query: Send back human VR1 (Homo sapiens) IC50 of O=C(O)c1cnc(N2CCOc3c(C(=O)Nc4ccc(C(F)(F)F)c(F)c4)cccc32)c(Cl)c1 only.
Reply: 0.1 to 1 µM

Query: State the measured IC50 (human VR1 (Homo sapiens)) of CC(=O)NC[C@H]1COc2c(C(=O)Nc3ccc(C(F)(F)F)cc3)cccc2N1c1ncccc1Cl
Reply: < 0.1 µM

Query: Identify measured IC50 obtained with human VR1 (Homo sapiens) for CCc1cnc(N2CCOc3c(C(=O)Nc4ccc(Cl)cc4)cccc32)nc1 .
Reply: 0.1 to 1 µM
